read-out: Monokine induced gamma interferon (MIG), CXCL9 (gene 4283); test: BSK_3C_MIG: BioMAP Diversity Plus: 3C Assay for Monokine induced gamma interferon (MIG) Biomarker Activity (AID 2283021); conditions: primary human endothelial cells (HUVEC); actives raise or lower the signal
Activity calls are given as the source filed them. How the source made its calls: active means hit-call score of the fitted dose curve at least 0.9, where 1 is the maximum; inactive means score below 0.9.
Outcome field: choose from True = active, False = inactive

Reference set (5 entries):
| compound | group label |
| --- | --- |
| CN(C)CCC(c1ccc(Cl)cc1)c1ccccn1 (stereo unspecified) | False |
| CC[N+](CC)(CC(=O)Nc1c(C)cccc1C)Cc1ccccc1 (tested in a mixture with another compound) | False |
| CCCCCCCCCCCCCCCCCC[N+](C)(C)C | True |
| CCCCCCCCCCC1CO1 (stereo unspecified) | True |
| CC(C)CC(=O)CC(C)CC(C)C (stereo unspecified) | False |

For the next question, use this compound.
// query Field: outcome | Entry: CN(C)c1ccc(C(c2ccccc2)c2ccc(N(C)C)cc2)cc1
// result False

----------
target: Heat shock factor protein 1 (Homo sapiens) (UniProt Q00613); assay: ATG_HSE_CIS: Attagene CIS-FACTORIAL HepG2 Assay for human Heat Shock Transcription Factor 1 (HSE) (AID 2282953); settings: HepG2 HSE cis-reporter, Attagene RNA transcription; actives raise or lower the signal
Sequence (Q00613 whole entry, looked up): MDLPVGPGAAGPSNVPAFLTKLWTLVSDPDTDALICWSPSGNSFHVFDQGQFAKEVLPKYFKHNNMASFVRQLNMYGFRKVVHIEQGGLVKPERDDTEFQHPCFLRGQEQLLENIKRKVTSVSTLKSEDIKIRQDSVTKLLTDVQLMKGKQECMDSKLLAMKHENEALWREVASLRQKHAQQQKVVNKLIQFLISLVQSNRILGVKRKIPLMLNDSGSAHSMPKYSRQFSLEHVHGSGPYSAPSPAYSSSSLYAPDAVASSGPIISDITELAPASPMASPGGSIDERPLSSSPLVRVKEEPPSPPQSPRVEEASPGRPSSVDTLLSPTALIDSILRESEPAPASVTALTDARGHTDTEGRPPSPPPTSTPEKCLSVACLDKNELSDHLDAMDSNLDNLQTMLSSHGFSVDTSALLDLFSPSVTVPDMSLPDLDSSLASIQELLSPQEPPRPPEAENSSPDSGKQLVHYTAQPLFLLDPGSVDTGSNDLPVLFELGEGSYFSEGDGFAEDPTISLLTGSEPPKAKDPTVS
Active and inactive are the calls of the source. How the source made its calls: active means hit-call score of the fitted dose curve at least 0.9, where 1 is the maximum; inactive means score below 0.9.
Outcome field: choose from T for active, F for inactive

| compound | group label |
| --- | --- |
| CCCCC(CC)COC(=O)CS (stereo not drawn) | F |
| c1cc[c]([Bi]([c]2ccccc2)[c]2ccccc2)cc1 | F |
| Clc1ccccn1 | F |
| CN1CCCC1 | F |
| CC/C=C\CC/C=C/C(OCC)OCC | T |
| CC(O)(P(=O)(O)O)P(=O)(O)O | F |

// query Field: outcome | Entry: CCCCCC1CCCC(=O)O1 (stereo not drawn)
// result F

// query Field: outcome | Entry: CCCN[C@H]1CCc2nc(N)sc2C1
// result F

----------
read-out: C-C motif chemokine 2 (Homo sapiens) (UniProt P13500); test: BSK_KF3CT_MCP1: BioMAP Diversity Plus: KF3CT Assay for Monocyte Chemoattractant Protein 1 (MCP1/CCL2) Biomarker Activity (AID 2283073); settings: primary human keratinocytes with fibroblasts; actives raise or lower the signal
Activity calls are given as the source filed them. Rule for the calls: active = hit-call score of the fitted dose curve at least 0.9, where 1 is the maximum; inactive = score below 0.9.
Outcome field: choose from Y (active), N (inactive)

Reference set (2 entries):
| molecule | group label |
| --- | --- |
| CC(C)CC(=O)CC(C)CC(C)C (centres undefined) | Y |
| Cc1c(C(N)=O)cc([N+](=O)[O-])cc1[N+](=O)[O-] | N |

// query Field: outcome | Entry: CCCCCCC(O)CCCCCCCCCCC(=O)OC (centres undefined)
// result N

// query Field: outcome | Entry: CN(C)CCC(c1ccc(Cl)cc1)c1ccccn1 (centres undefined)
// result N

// query Field: outcome | Entry: CC[N+](CC)(CC(=O)Nc1c(C)cccc1C)Cc1ccccc1 (tested in a mixture with another compound)
// result N

// query Field: outcome | Entry: CN(C)Cc1cc(C(C)(C)C)c(O)c(C(C)(C)C)c1
// result N

// query Field: outcome | Entry: C1CN(CCOCCN2CCOCC2)CCO1
// result N

// query Field: outcome | Entry: CCCCC(CC)COC(=O)C=Cc1ccc(OC)cc1 (centres undefined)
// result N

// query Field: outcome | Entry: COc1ccccc1Oc1c(NS(=O)(=O)c2ccc(C(C)(C)C)cc2)nc(-c2ncccn2)nc1OCCO
// result N
